tested on: Human Cytochrome P450; test: Determination of first-pass effectiveness of furocoumarins (human cytochrome P450-mediated biotransformation, Protocol C / C'); format: in vitro ADME; conditions: determined herein
measured-attribute: first-pass effect effectiveness

{"given-smiles": "O=c1ccc2ccc3occc3c2o1", "measured-attribute": "first-pass effect effectiveness", "experimental-value": "ineffective"}
{"given-smiles": "CC(C)=CCOc1c2occc2cc2ccc(=O)oc12", "measured-attribute": "first-pass effect effectiveness", "experimental-value": "ineffective"}
{"given-smiles": "O=c1ccc2cc3ccoc3cc2o1", "measured-attribute": "first-pass effect effectiveness", "experimental-value": "ineffective"}
{"given-smiles": "COc1c2ccoc2c(OC)c2oc(=O)ccc12", "measured-attribute": "first-pass effect effectiveness", "experimental-value": "ineffective"}
